Below is a list of entries, each paired with its recorded melting point value.
endpoint_name: melting point

> print(dat)
                             compound.smiles  endpoint.name  recorded.value
 1  Cc1c(Sc2cccc(S(C)(=O)=O)c2)c2cc(NS(C)(=O)=O)ccc2n1CC(=O)O  melting point   233 to 236 °C
 2  Cc1c(Sc2cccc(Cl)c2)c2cc(NS(C)(=O)=O)ccc2n1CC(=O)O  melting point          224 °C
 3  Cc1c(Sc2cccc3cccnc23)c2cc(NS(C)(=O)=O)ccc2n1CC(=O)O  melting point          257 °C
 4  Cc1c(Sc2ccccc2C(F)(F)F)c2cc(NS(C)(=O)=O)ccc2n1CC(=O)O  melting point          207 °C
 5  Cc1c(Sc2ccc(Cl)cc2)c2cc(NS(C)(=O)=O)ccc2n1CC(=O)O  melting point          214 °C
 6  Cc1c(Sc2ccccc2C(C)C)c2cc(NS(C)(=O)=O)ccc2n1CC(=O)O  melting point          160 °C
 7  Cc1c(Sc2ccccc2Cl)c2cc(NS(C)(=O)=O)ccc2n1CC(=O)O  melting point          212 °C
 8  Cc1c(Sc2ccccc2S(C)(=O)=O)c2cc(NS(C)(=O)=O)ccc2n1CC(=O)O  melting point   227 to 230 °C
 9  COc1cccc(Sc2c(C)n(CC(=O)O)c3ccc(NS(C)(=O)=O)cc23)c1  melting point          292 °C
10  COc1ccc(Sc2c(C)n(CC(=O)O)c3ccc(NS(C)(=O)=O)cc23)cc1  melting point          215 °C
11  Cc1c(Sc2ccc(Cl)cc2)c2c(NC(=O)C3CC3)cccc2n1CC(=O)O  melting point   183 to 185 °C
12  Cc1c(Sc2ccc(S(C)(=O)=O)cc2)c2cc(-c3cncnc3)ccc2n1CC(=O)O  melting point        > 290 °C
13  Cc1c(Sc2ccc(Cl)cc2)c2c(NC(=O)c3ccccc3)cccc2n1CC(=O)O  melting point   213 to 215 °C
